Entries and their GI50 values follow.
Tested on: HL-60
Assay Overview: NCI tumour cell line growth inhibition, 48 h
Activity calls are given as the source filed them. No stated cut-off is given here; in the data, active = GI50 up to about 1.1 µM and inactive = higher.

Worked set:
INSERT INTO results (molecule, recorded_metric, result_value) VALUES
  ('CC(/C=C/C(=O)c1sc(-n2nc(-c3ccccc3)cc2-c2ccccc2)nc1C)=C\c1ccccc1', 'GI50', '36.3 µM (inactive)'),
  ('CC(C)(C)C(=O)CC1(O)C=C(O)C(O)(CC(=O)C(C)(C)C)O1 (centres undefined)', 'GI50', '24.9 µM (inactive)'),
  ('CCOC(=O)c1cc(C2(O)CCN(Cc3ccccc3)C2=O)c(-c2cc(C)no2)[nH]1 (centres undefined)', 'GI50', '15.3 µM (inactive)');

Query molecule follows.
Query: Give GI50 for C=CCN1C(=O)/C(=C/c2ccc(OC)cc2)N=C1SC/C=C/C
Result: 20 µM (inactive)
